assayed target: T1, human MSLN-R2-his protein (human, UniProt Q13421 391-486)
T1 construct: Region 2 of human mesothelin, made in HEK293E cells, His-tagged; also called human MSLN-R2 protein; hMSLN-R2-his; not shown: His tag
T1 sequence (Q13421 other isoform, or with tags, fused parts or gaps): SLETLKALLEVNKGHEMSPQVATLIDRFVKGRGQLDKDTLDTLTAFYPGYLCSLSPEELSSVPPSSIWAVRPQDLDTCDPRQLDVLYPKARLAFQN
method notes: ELISA on coated MSLN-R2; antibody 1 nM
quantity measured: OD450 (OD450)
Respond numerically; units are OD450 and should not be typed.

Example entries begin here.
{"binder": "S009-F8-9.16 (antibody, human IgG1, kappa, V domains shown) VH: EVHLQQSGPVLVKPGASVKMSCKASGYTFTDYFMNWVKQSHGKSLEWIGVINPHNGYVNYNQKFQGRATLTVDKSSSTVYMELNSLTSEDSAVYHCARSAESAWFAYWGQRTLVTVSA VL: DVLMTQTPLSLPVSLGDQVSISCRSSQSIVHVKGNTYLEWYLQKPGQSPELLIYKVSNRFSGVPDRFSGGGSGTDFTLKISRVEPEDLGVYYCFQGSHLPYTFGGGTKLEIKR", "OD450 [OD450]": 0.04}
{"binder": "S009-F8-28.23 (antibody, human IgG1, kappa, V domains shown) VH: EVQLVESGGDLVKPGGSLKLSCAASGFTFSSYAMSWVRQTPEKRLEWVATISDGGSYTYYPDNVEGRFTISRDNAKNNLYLQMSHLKSEDTAMYYCAGDRGYSYALDYWGQGTSVTVSS VL: NIMMTQSPSSLAVSAGEKVTMSCKSSQSVLYSSNQKNYLAWYQQKPGQSPKLLIYWASTRESGVPDRFTGSGSGTDFTLTISSVQAEDLAVYYCHQYLSSLTFGAGTKLELKR", "OD450 [OD450]": 0.04}

Value of measured OD450 for the entry S009-F8-19.21 (antibody, human IgG1, kappa, V domains shown) VH: EFQLQQSGPELVKPGASVKISCKTSGYSFTDYNMNWVKQSNGKSLEWIGVINPNYGTTGYNQKFKGKATLTVDQSSSTAYMQLNSLTSEDSAVYYCARGGYDGEAMDYWGHGTSVTVSS VL: QIVLTQSPAIMSASPGEKVTMTCSASSSVNYMHWYQQKSGTSPKRWIYDTSKLASGVPARFSGSGSGTSYSLTISSMEAEDAATYYCQQWSSYPPTFGGGTKLEIKR : 0.05
